- SYSTEM_NAME: Arginase-2, mitochondrial (Homo sapiens)
- ASSAY_NOTES: in vitro enzyme assay to detect the production of urea directly proportional to the activity of Arginase II; further: in the data most compounds retested in dose-response had high values
- Type: functional
- Design: scale not given: direction of the effect not stated beside the values
- PARTICULARS: 33.3 µM
PROPERTY_LABEL: Percent Effect (%)
Numbers only; they are read as %.

Problem: Consider the molecule `c1cnc(NCc2noc3c2CN(CCN2CCCC2)CC3)nc1` and give its measured Percent Effect.
Solution: -47.5

Problem: Would you mind telling me what Percent Effect value was observed for `Cc1noc(C(C)C)c1C(=O)NS(=O)(=O)c1ccc(Cl)cc1` ?
Solution: 0

Problem: Param item = CCOc1ccc(CN(C)C(=O)NC(C)c2nncn2C)cc1 (stereo unspecified) ; retrieve measured Percent Effect.
Solution: 4.42

Problem: So what does the record say about Percent Effect for `Cc1ccoc1C(=O)NC1CCN(Cc2csc3c(F)cccc23)CC1` ?
Solution: -3.66

Problem: Given the molecule `O=C(CC1CC1)NCc1cn2c(n1)CN(C(=O)c1cccnc1)CC2` , what is its reported Percent Effect?
Solution: 1.17

Problem: Recorded Percent Effect of `CO[C@H]1CCN(Cc2cnn(C)c2)[C@@H]2CN(Cc3cccnc3)C[C@H]12` , please.
Solution: -8.63

Problem: I have this molecule here, O=C(c1cccnc1)N1CCCC(c2cc(C(F)F)n3ncnc3n2)C1 (stereo unspecified) , and I need its recorded Percent Effect.
Solution: 0.232

Problem: Any idea what its Percent Effect is? The molecule is CCn1ncnc1C(C)NC(=O)C1CCN(C(C)C)CC1 (stereo unspecified)
Solution: 2.73

Problem: Which Percent Effect value is on record for `CC(C)Oc1ccccc1CNC(=O)N1CCC(n2cncn2)CC1` ?
Solution: -2.37

Problem: Requested read-out: Percent Effect. Entry: `CC(C)c1nn(C)c(N(C)C)c1CNCCC(=O)NC1CCCC1`
Solution: 1.08

Problem: Item `CN1C(=O)C[C@@H]2[C@@H]1CCN2S(=O)(=O)Cc1ccccc1` has what recorded Percent Effect?
Solution: 2

* * *

Please provide measured Percent Effect for the entries that follow.
- SYSTEM_NAME: Tyrosyl-tRNA synthetase, putative (Trypanosoma cruzi (strain CL Brener)) (UniProt Q4DSP6)
- Sequence (Q4DSP6 as listed by the source): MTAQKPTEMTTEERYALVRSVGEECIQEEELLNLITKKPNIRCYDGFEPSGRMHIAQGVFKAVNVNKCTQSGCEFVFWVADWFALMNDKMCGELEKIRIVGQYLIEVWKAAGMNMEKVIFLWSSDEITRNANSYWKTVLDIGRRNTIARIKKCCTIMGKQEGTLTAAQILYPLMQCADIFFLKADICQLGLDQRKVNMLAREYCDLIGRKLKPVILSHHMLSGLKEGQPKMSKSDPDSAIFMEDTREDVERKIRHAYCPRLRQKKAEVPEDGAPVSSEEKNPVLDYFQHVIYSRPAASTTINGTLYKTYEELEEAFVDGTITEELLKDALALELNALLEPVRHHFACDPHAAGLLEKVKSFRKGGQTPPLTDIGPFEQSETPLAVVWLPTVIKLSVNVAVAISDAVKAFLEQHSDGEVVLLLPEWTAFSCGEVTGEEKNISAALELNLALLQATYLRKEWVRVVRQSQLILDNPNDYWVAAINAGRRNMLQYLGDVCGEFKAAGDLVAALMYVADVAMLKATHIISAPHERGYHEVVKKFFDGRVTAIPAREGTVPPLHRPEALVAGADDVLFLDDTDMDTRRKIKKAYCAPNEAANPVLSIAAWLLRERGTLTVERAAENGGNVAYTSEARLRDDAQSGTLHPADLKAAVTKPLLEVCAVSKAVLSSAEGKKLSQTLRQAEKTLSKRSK
- ASSAY_NOTES: Trypanosoma cruzi tyrosyl tRNA synthetase (TcYRS) SOP
- Type: functional
- Parameters: scale not given: direction of the effect not stated beside the values
- PARTICULARS: 30 µM
Express your answer in %, writing the number without its unit.

Problem: What value of Percent Effect has been recorded for this entry: `COc1ccccc1S(=O)(=O)Nc1ccc2c(C(=O)O)c[nH]c2c1`
Solution: 12.2

Problem: Find the recorded Percent Effect belonging to `CN(C)c1ccc(CNC(=O)c2ccc(Cl)cc2F)cc1` and report it.
Solution: 20.8

Problem: Returns the measured Percent Effect for the input molecule. Input: COCCN1CCC(Cc2cncc(-c3ccc(C(=O)O)cc3)n2)C1 (centres undefined)
Solution: 1.3

Problem: # Percent Effect lookup, item `CCc1nnc2n1CCN(CCS(=O)(=O)c1ccccc1)C2`
Solution: 7.32

Problem: Field request: Percent Effect | item: Cc1cc(Nc2nc(C)cs2)nc(C2CCCCN2CCO)n1 (centres undefined)
Solution: 11.7

Problem: Recorded Percent Effect for CCCN1C(=O)CC(N2CCN(c3ccc(F)cc3)CC2)C1=O (centres undefined) , please?
Solution: 7.79

Problem: Recorded Percent Effect of O=C(NC1CCS(=O)(=O)C1)c1sccc1-c1ccc(F)cc1 (centres undefined) , please.
Solution: 6.17

Problem: Consider the molecule shown here: `O=C(Cc1ccc(F)cc1)N1CCn2cc(Cn3cccn3)nc2C1` What is its recorded Percent Effect?
Solution: 20.5

Problem: Which Percent Effect value is on record for `O=C(CN1C=Nc2ccccc2S1(=O)=O)NCCc1cccs1` ?
Solution: 25.9

Problem: Which measured Percent Effect value corresponds to `COc1ccc(Br)c(C(=O)N2CCC(c3n[nH]c(C4CC4)n3)CC2)c1` ?
Solution: 25.3

Problem: What value of Percent Effect has been recorded for this entry: `Cc1csc([C@@H]2C[C@@H]3CCN(C(=O)c4ccnnc4)C[C@H]3O2)n1`
Solution: 8.97

Problem: If you can, please state the reported Percent Effect value of CCC(CC)C(CNC(=O)Nc1ccc(C)cc1)N1CCOCC1 (centres undefined) .
Solution: 21.5

Problem: I'd like to know its Percent Effect. The molecule in question is `Cc1cnnn1Cc1ncn2c1CN(Cc1cccs1)CCC2`
Solution: 5.13

Problem: Form field: reported Percent Effect of `CCOc1cccc2c1OCC(C(=O)NS(=O)(=O)c1ccc(Cl)cc1)=C2`
Solution: -33.3

Problem: Item under review: `Cc1nccc(C(=O)N2CCCN(Cc3cnn(C(C)C)c3)CC2)n1` . Reported Percent Effect?
Solution: 11

Problem: What value of Percent Effect has been recorded for this entry: `Cc1cc(-c2cnc(NCc3cccnc3)nc2C(C)(C)C)on1`
Solution: 6.41

Problem: # Percent Effect lookup, item `CN(C)c1cc(CNC(=O)c2cn(-c3ccc(F)cc3)nn2)ccn1`
Solution: 21.2

Problem: Need Percent Effect of Cc1ccc(C)c(C(NC(=O)C(C)(C)C)c2cccnc2)c1 (centres undefined) , thanks.
Solution: 6.41

Problem: Report Percent Effect for `CCCNC(=O)CSc1nnc2[nH]c(=O)cc(CC)n12` please.
Solution: 17.5

Problem: Need Percent Effect of `COc1ccc(CN2CCn3c(CNS(C)(=O)=O)nnc3C2)cc1` , thanks.
Solution: 5.13

Problem: Query (molecule): Cc1cc(CC(=O)N2CCCC2c2nc(C(C)C)no2)on1 (centres undefined) ; field requested: Percent Effect
Solution: 15.4

Problem: Using the record for CC(C)NC(=O)N1CCC2(CC(C(=O)NCc3cccnc3)=NO2)C1 (centres undefined) , report its Percent Effect.
Solution: 0

Problem: Quick one: Percent Effect for `Cc1cccc(NC(=O)N2CCCn3cnc(CN4CCCC4)c3C2)c1` ?
Solution: 11

Problem: # lookup: Percent Effect of `Cc1ncsc1C(=O)Nc1cccc(OCC(F)F)n1`
Solution: 7.79
